Test system: U87 cells
ASSAY PROCEDURE: Cell killing assay (MTS), U87 cells
Format: cell-based
CONDITION LABEL: Homo sapiens, U-87 MG, 96 h, read-out: IC50 nM
Procedure: SKBr3, human breast cancer cell line, high HER2 expression levels, up to 1,000,000 receptors per cell [Lazar G A, et al Proc Natl Acad Sci USA. […] When confluency was 70-80%, cells were washed with PBS (2×10 ml) and incubated with trypsin for 5-7 min. Complete media was added and the cells were resuspended by pipetting. […] The cells were then counted using a haemocytometer and diluted accordingly. […]
PROPERTY: IC50

compound="COc1cc2cc(c1Cl)N(C)C(=O)C[C@H](OC(=O)[C@H](C)N(C)C(=O)CCS)[C@]1(C)O[C@H]1[C@H](C)[C@@H]1C[C@@](O)(NC(=O)O1)[C@H](OC)/C=C/C=C(\\C)C2 [Free drug DM1]" system="U87 cells" recorded_result="50.7 nM"
